Provenance of the data: PubChem BioAssay

Listed below: NADPH fluorescence slope values for each entry.
molecular target: Voltage-gated potassium channel subunit beta-2 (Rattus norvegicus); test: KvBeta positive modulators, primary screen, biochemical, NADPH fluorescence (AID 623); settings: Recombinant KvBeta, NADPH fluorescence decrease slope, 10 min; at 10 µM; stronger effect = lower value;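 also: fluorescence intensity change per second fitted from 20 to 320 s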
recordedEndpoint: NADPH fluorescence slope

| compound | valueObserved |
| --- | --- |
| CN(C)c1ccc(CNn2cnnc2)cc1 | 1.6e-05 |
| CCc1ccc(N(CC(=O)NC2CCCC2)S(=O)(=O)c2c(C)noc2C)cc1 | -4.6e-05 |
| N#CCCN(C(=O)c1ccco1)c1ccccc1 | -0.000111 |
| CCOc1ccc(C2CC(c3ccccc3)Nc3nc(N)nn32)cc1 (stereo unspecified) | -0.000102 |
| COc1cccc(C(=O)c2sc(NC(C)C)nc2N)c1 | -7.1e-05 |
| COc1ccc(Cn2nnnc2C(c2cccnc2)N2CCN(c3ccc(O)cc3)CC2)cc1 (stereo unspecified) | -5.3e-05 |

----------
experiment: inhibitors of larval lipid processing in zebrafish, primary screen, whole organism, PED6 fluorescence, gall bladder and intestine (AID 686); details: Zebrafish larvae PED6 lipid processing, fluorescence scoring; screened at 20 µM (by protocol);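 also: larvae 5 to 7 days old with five fish per well; signal comes from phospholipase A2 cleavage of quenched PED6 carried via bile; overnight exposure to compound and PED6 before scoring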
Active and inactive are the calls of the source.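 The calls were made as follows: active = a full or partial loss of lipid-probe fluorescence in the fish gall bladder, intestine or both, judged by eye; inactive = no fluorescence loss, or compound toxic to the fish.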

| compound | outcome |
| --- | --- |
| COc1ccc(-n2ncc3c(Nc4cccc(C)c4)ncnc32)cc1 | inactive |
| Cc1nnc2n(C3CCCCC3)c(=O)c3c4c(sc3n12)COC(C)(C)C4 | inactive |
| Cc1cc(=O)oc(C)c1C(=O)n1nc(C)c2c1C[C@@H]1[C@H]2C1(C)C | inactive |
| CCC(CC)n1[nH]c(=O)cc1N | inactive |
| CCOC(=O)CSc1nnc(C)c(=O)[nH]1 | inactive |
| Cc1ccc(-n2ncc3c(NCc4cccnc4)ncnc32)c(C)c1 | inactive |
| CCOC(=O)CNC(=O)CCCCCC(=O)NCC(=O)OCC | inactive |
| O=C1C=C(N2CCN(C3=CC(=O)CCC3)CC2)CCC1 | inactive |
| CCOc1ccc(N=C(NC#N)SCC(=O)NC2CC2)cc1 | inactive |
| COC(=O)c1ccc(CN(C(C)=O)c2ccccc2)o1 | inactive |
| O=C1CCC(=O)N1c1nc2n(n1)C(c1ccccc1)C=C(c1ccc(Br)cc1)N2 (centres undefined) | inactive |
| COC(=O)c1sc2nc(N3CCCCC3)c3c(c2c1N)CC(C)(C)N(C)C3 | inactive |
| COc1cccc(-c2nc(N3CCCCC3C)c3ccccc3n2)c1O (centres undefined) | inactive; toxic |
| Cc1cc(C)n(S(=O)(=O)/C=C/c2ccccc2)n1 | inactive |
| CC1(C)Cc2c(c(-c3ccco3)[nH]c(=O)c2C#N)CS1 | inactive |
| CC1(C)Cc2c(C#N)c(SCC(=O)c3ccccc3)nc(N3CCOCC3)c2CS1 | inactive |
| N#Cc1nc(COc2ccccc2)oc1N1CCCC1 | inactive |
| Cc1cc(SCCC(=O)O)nc2ccccc12 | inactive |
| CCOCCn1c(SCc2c(F)cccc2Cl)nc2c1c(=O)[nH]c(=O)n2C | inactive |
| C/C(=N/n1cnnc1)c1cccnc1 | inactive |
| CCN(CC)C(=O)CSc1nc2ccccc2c(=O)n1CC1CCCCC1 | inactive |
| Cc1cc(=O)oc(C)c1C(=O)NCCc1ccccc1 | inactive |
| c1ccc2c(c1)CCN(c1ncnc3c1[nH]c1ccccc13)C2 | inactive |
| C=C(C)Cn1c(-c2ccc(OC)cc2)nc2ccccc21 | inactive; toxic |

----------
Listed below: cell count values for each entry.
test: inhibitors of TNFa-induced NFkB p65 translocation, primary screen, imaging, HUVEC, MLSMR starter and 10KST1 sets (AID 438); details: HUVEC TNFa-induced p65 nuclear translocation; measured here: nuclei count (cytotoxicity indicator), at 2.08 µM;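 also: compound added about 3h40 before a 20 min TNFalpha stimulation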

| compound | cell count |
| --- | --- |
| O=C(O)c1cc2c(s1)CCCC2 | 473 |
| COc1cc2c(cc1OC)C1(CCCC1)C(N)=C2C#N | 374 |
| CCOC(=O)C1=C(N)n2c(s/c(=C\c3cccnc3)c2=O)=C(C(=O)OC)C1c1cccnc1 (configuration not stated) | 326 |
| COC(=O)c1nnn(-c2ccccc2)c1N | 314 |
| COCC(=O)N(Cc1cc2cc(OC)ccc2[nH]c1=O)c1ccccc1 | 412 |
| COc1ccc(C)cc1NC(=O)CCC(=O)Nc1ccc2nc(N3CCN(C)CC3)cc(C)c2c1 | 623 |
| O=c1cc(-c2ccco2)nc(-c2cccs2)o1 | 667 |
| CCCCOc1ccccc1C(=O)NCCCCCC(=O)O | 375 |
| CC(C)=CCCC(C)CN(C)CCc1ccccn1 (configuration not stated) | 281 |
| C=C(C)CSc1nnc2n(C)c(=O)c3c4c(sc3n12)CCC4 | 334 |
| Cc1ccc(NC(=O)CCC(=O)O)cc1F | 381 |
| COC(=O)c1ccc(CN(C(C)=O)c2ccccc2)o1 | 547 |

----------
target: Muscarinic acetylcholine receptor M4 (Homo sapiens); test: compounds altering M4/GIRK thallium flux, either direction, primary screen, M4 allosteric agonist project, cell-based, HEK293 M4/GIRK, BTC-AM (AID 625); settings: at 10 µM, actives lie on both sides;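 also: thallium influx through GIRK channels coupled to M4 in HEK293 cells with BTC-AM dye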
Binning of fluorescence slope into classes: c1 = under 0.005, c2 = from 0.005 up to 0.006, c3 = 0.006 and over

| compound | answerLabel |
| --- | --- |
| Clc1ccc(-n2ncc3c(NCc4ccccn4)ncnc32)cc1 | c3 |
| CCN1CCc2c(C#N)c(NCc3ccccc3)nc(N(CC)CC)c2C1 | c1 |
| OC1(C2(O)CC(c3ccccc3)ON2)CCCCC1 (configuration not stated) | c2 |
| Cc1ccc(S(=O)(=O)N(CC(O)CN(C)C)c2ccccc2)cc1 (configuration not stated) | c2 |
| CSc1nncc(=O)[nH]1 | c3 |
| CC(C)OC(=O)c1c2nc3ccccc3nc2n2c1[nH]c(=O)c1ccccc12 | c3 |
| CC(NC(=O)Nc1cccnc1)(C(F)(F)F)C(F)(F)F | c2 |
| CC(=O)c1ccc(C#CC(C)(C)O)s1 | c2 |
| Nc1c2c(nc3ccccc13)N(C1CCCCC1)CC2 | c1 |
| CCO/C(C)=N/n1c2nc3ccccc3nc2c2c(=O)n(Cc3ccccc3Cl)c(C)nc21 | c1 |
| CCOC(=O)CNC(=O)CNC(=O)c1ccc(OCC(C)C)cc1 | c2 |

----------
assay: inhibitors of E-selectin induction by TNFa, primary screen, imaging, HUVEC, immunofluorescence, MLSMR starter and 10KST1 sets (AID 487); details: HUVEC TNFalpha-induced E-selectin immunofluorescence imaging, at 2 µM; measured here: cell number, toxicity;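 also: 100% = median nuclei count of all wells on the same plate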

| compound | nuclei count |
| --- | --- |
| CCOC(=O)C1(c2ccccc2)NC(c2ccc(N(C)C)cc2)C2C(=O)N(C)C(=O)C21 (stereo not given) | 93.2% |
| Cc1cc(C)c(S(=O)(=O)Nc2cccnc2)c(C)c1 | 113% |
| CCOC(=O)c1cccc(NC(=O)CNS(=O)(=O)c2cccs2)c1 | 134% |
| CC1(C)Cc2c(C#N)c(N3CCOCC3)nc(Cc3ccccc3)c2CO1 | 132% |
| O=C(Nc1ccc(N2CCN(Cc3ccccc3Cl)CC2)cc1)c1cccnc1 | 102% |
| COc1ccc(-n2c(Cc3cccn3C)nnc2SCC(=O)Nc2cccc(OC)c2)cc1 | 90.2% |
| Cc1nc2c(c(N3CCOCC3)n1)OCC(=O)N2 | 132% |
| Cn1cc(C2NC(=O)c3c(sc4c3CCCC4)N2)c2ccccc21 (stereo not given) | 112% |
| Cc1ccc(Cn2ncc3c(N4CCN(Cc5ccc(Cl)cc5)CC4)ncnc32)cc1 | 134% |
| CC1=C(C(=O)Nc2ccc(F)cc2)C(c2cccc(C)c2)n2nc(CCCO)nc2N1 (stereo not given) | 133% |
| c1nc(NC2CCCCC2)c2[nH]cnc2n1 | 168% |
| Cc1cccc(Cn2c(SCCN3CCCCC3)nc3c2c(=O)[nH]c(=O)n3C)c1 | 95.1% |
| CNC(=O)CN(c1ccc(C(C)C)cc1)S(C)(=O)=O | 114% |
| COc1ccc(-c2nnc(SCC(=O)Nc3ccc(Cl)cc3)n2C)cc1 | 122% |
| COc1ccc(CCn2c(C)cc3c(c2=O)C(c2ccc4c(c2)OCO4)C(C#N)=C(N)O3)cc1OC (stereo not given) | 170% |
| CCn1c(C(C#N)/C(=N\S(=O)(=O)c2cccs2)c2ccccc2)nc2ccccc21 (stereo not given) | 119% |
| Cc1cc(NC(=O)Cc2cn3ccsc3n2)n(-c2ccccc2)n1 | 106% |
| c1ccc(OCCCn2nnc(-c3cccnc3)n2)cc1 | 121% |
| C=CCSc1nc(N)c2c(C)c(C)sc2n1 | 101% |
| CS(=O)(=O)N1CCN(c2ccccc2NC(=O)c2ccc(-c3ccc(Cl)cc3Cl)o2)CC1 | 54.7% |
| COc1cccc(-c2nc3n(n2)C(c2cccs2)C(C(=O)Nc2cccnc2)=C(C)N3)c1 (stereo not given) | 113% |
| CC/C(O)=C(/C#N)c1nnc2n1CCCCC2 | 86.1% |
| N#Cc1cccc(-n2c(-c3ccccc3)nnc2-c2ccccc2)c1C#N | 99.3% |
| CCN(CC)CCN1C(=O)C(O)=C(C(C)=O)C1c1ccc(OC)c(OC)c1 (stereo not given) | 182% |
| C(=N\n1cnnc1)/c1cccc(Oc2ccccc2)c1 | 111% |
| O=C(NC1CCCCC1)c1ccc(S(=O)(=O)N2CCCCC2)cc1 | 119% |
| Cc1cc2ccccc2cc(C)c1=O | 168% |
| CCOC(=O)c1oc2cccc(OC(C)=O)c2c1C | 85.9% |
| COc1ccc(-c2nc(C#N)c(N3CCN(c4ccccc4)CC3)o2)cc1 | 118% |
| O=C(Nc1ccccn1)N1CCOCC1 | 114% |
| CCCN(CCC)c1nc2ccccc2nc1C(C#N)C(=O)OC(C)COC (stereo not given) | 174% |
| CCN(CC)CCN1C(=O)C(=O)/C(=C(/O)c2ccc(OC)cc2)C1c1ccco1 (stereo not given) | 163% |
| COC(=O)/C=c1/s/c(=C(\C#N)C(=O)NCc2ccco2)n(-c2ccccc2)c1=O | 129% |
| C[C@H](NC(=O)NCc1cccs1)C(=O)O | 72.1% |
| CN(CCOC(=O)c1ccc2c(c1)OCCO2)Cc1ccccc1 | 184% |
| O=c1ccc2cc3c([nH]c4ccc(Br)cc43)oc-2c1O | 109% |
| Cc1nn(CC(=O)NCCN2CCOCC2)c(=O)c2ccccc12 | 116% |
| CSc1nc(N)nc(SCC(=O)C23CC4CC(CC(C4)C2)C3)c1C#N | 94.4% |
| Cc1cc(=O)oc(C)c1C(=O)NCC1CCCO1 (stereo not given) | 123% |
| CCOC(=O)C(C)(C)Sc1nc2c(cnn2-c2ccc(C)cc2)c(=O)[nH]1 | 106% |
| N#Cc1c(N)nc(SCC(=O)NCc2ccc3c(c2)OCO3)c(C#N)c1-c1cccs1 | 115% |
| COc1ccc(-c2nc(C)sc2CC(=O)O)cc1 | 101% |
| CCOC(=O)c1c(C)oc2ccc(OCC(=O)C(C)(C)C)cc12 | 124% |
| Nn1c(Cc2ccccc2F)nnc1SCC(=O)N1CC(=O)Nc2ccccc21 | 105% |
| COC(=O)c1[nH]c2cc(OC)ccc2c1NC(=O)CN1CCN(c2cccc(C)c2)C(C)C1 (stereo not given) | 166% |
